Molecular target: T1, peptide tag (SEQ ID NO:16), unlabeled synthetic peptide (C-terminal amide)
T1 construct: Short peptide tag derived from the leucine zipper of the GCN4 transcription factor; also called protein tag peptide; unlabeled peptide
T1 peptide: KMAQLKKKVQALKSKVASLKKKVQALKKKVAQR
Assay: equilibrium fluorescence anisotropy titration, 12.52 nM labeled peptide, 0.1x PBS, 25° C., 1:1 binding fit
Ends that are not written are not given here.

binder	Kd (nM)
YGRKKRRNRRRPCEMAQLEKEVQALESEVASLEKEVQALEKEVAQR-NH2 (not fully specified, Peptide derived from the GCN4 leucine zipper; also called labeled peptide; TMRPep)	5.4
